Parameter: Mutant EC50/HuIgG1 EC50. Scope: all listed entries.
Target: T1, human CD11a (human, UniProt P20701 26-1170)
T1 construct: whole, on cells; On Jurkat T-cells or human peripheral blood mononuclear cells, as part of LFA-1; also called CD11a on Jurkat cells; alpha subunit of LFA-1
T1 sequence (P20701 26-1170): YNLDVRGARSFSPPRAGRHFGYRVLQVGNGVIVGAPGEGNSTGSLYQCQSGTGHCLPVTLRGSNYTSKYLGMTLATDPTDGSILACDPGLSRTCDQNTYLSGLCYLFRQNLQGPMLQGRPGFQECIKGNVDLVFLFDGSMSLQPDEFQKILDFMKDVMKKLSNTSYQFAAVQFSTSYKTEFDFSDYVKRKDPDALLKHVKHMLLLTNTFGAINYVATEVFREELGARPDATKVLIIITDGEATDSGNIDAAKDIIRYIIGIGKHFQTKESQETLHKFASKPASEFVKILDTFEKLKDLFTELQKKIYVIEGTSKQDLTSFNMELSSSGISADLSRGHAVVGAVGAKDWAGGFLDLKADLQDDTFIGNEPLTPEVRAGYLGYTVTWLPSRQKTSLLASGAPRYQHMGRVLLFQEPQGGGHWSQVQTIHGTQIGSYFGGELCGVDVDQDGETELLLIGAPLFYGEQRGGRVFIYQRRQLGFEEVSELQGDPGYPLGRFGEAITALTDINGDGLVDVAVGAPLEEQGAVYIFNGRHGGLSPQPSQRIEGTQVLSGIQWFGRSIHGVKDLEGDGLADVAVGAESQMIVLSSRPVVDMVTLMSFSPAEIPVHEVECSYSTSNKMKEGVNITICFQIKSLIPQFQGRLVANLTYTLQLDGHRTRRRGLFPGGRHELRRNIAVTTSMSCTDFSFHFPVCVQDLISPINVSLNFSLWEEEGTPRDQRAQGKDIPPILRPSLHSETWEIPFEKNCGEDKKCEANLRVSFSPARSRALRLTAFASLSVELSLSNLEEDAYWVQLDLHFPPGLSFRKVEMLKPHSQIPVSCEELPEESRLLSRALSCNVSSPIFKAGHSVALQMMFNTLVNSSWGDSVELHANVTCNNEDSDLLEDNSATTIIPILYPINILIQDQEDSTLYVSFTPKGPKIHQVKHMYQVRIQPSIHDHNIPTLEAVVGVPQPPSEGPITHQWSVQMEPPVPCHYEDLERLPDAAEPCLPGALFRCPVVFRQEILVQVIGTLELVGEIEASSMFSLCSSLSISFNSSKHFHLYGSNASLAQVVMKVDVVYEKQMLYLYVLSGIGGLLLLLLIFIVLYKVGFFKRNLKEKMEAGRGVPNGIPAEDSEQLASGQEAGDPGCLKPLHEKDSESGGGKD
Assay: FACScan, Jurkat cells
endpoint_name: Mutant EC50/HuIgG1 EC50 (ratio)

# binder, value_measured
records = [
    ("HuIgG1 mutant AspH54Glu (antibody, V domains shown, HuIgG1 mutant, human IgG1; Kabat numbering; also called AspH54 change to Glu) VH: EVQLVESGGGLVQPGGSLRLSCAASGYSFTGHWMNWVRQAPGKGLEWVGMIHPSESETRYNQKFKDRFTISVDKSKNTLYLQMNSLRAEDTAVYYCARGIYFYGTTYFDYWGQGTLVTVSS VL: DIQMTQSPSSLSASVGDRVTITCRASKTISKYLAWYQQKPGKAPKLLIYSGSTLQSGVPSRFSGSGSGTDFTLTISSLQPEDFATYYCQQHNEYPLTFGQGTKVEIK", 16),
    ("HuIgG1 mutant AspH54Asn (antibody, V domains shown, HuIgG1 mutant, human IgG1; Kabat numbering) VH: EVQLVESGGGLVQPGGSLRLSCAASGYSFTGHWMNWVRQAPGKGLEWVGMIHPSNSETRYNQKFKDRFTISVDKSKNTLYLQMNSLRAEDTAVYYCARGIYFYGTTYFDYWGQGTLVTVSS VL: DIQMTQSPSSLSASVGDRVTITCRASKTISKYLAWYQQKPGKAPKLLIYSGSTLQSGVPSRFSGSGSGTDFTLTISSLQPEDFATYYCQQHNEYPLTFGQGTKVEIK", 26),
    ("HuIgG1 mutant AspH54Gln (antibody, V domains shown, HuIgG1 mutant, human IgG1; Kabat numbering; also called AspH54 change to Gln) VH: EVQLVESGGGLVQPGGSLRLSCAASGYSFTGHWMNWVRQAPGKGLEWVGMIHPSQSETRYNQKFKDRFTISVDKSKNTLYLQMNSLRAEDTAVYYCARGIYFYGTTYFDYWGQGTLVTVSS VL: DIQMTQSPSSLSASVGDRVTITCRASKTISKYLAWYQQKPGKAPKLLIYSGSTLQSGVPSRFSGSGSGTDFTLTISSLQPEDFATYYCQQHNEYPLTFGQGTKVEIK", 20),
    ("HuIgG1 mutant AspH54Ala (antibody, V domains shown, HuIgG1 mutant, human IgG1; Kabat numbering) VH: EVQLVESGGGLVQPGGSLRLSCAASGYSFTGHWMNWVRQAPGKGLEWVGMIHPSASETRYNQKFKDRFTISVDKSKNTLYLQMNSLRAEDTAVYYCARGIYFYGTTYFDYWGQGTLVTVSS VL: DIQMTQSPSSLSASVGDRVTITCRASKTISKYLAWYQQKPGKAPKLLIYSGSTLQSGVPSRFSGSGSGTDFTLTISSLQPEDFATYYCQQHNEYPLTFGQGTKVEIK", 147),
]
